# assay-overview: qHTS Assay for Lipid Storage Modulators in Drosophila S3 Cells;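 also: cells counted by Cell Tracker Red CMTPX staining in the red channel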
# condition-summary: BODIPY lipid droplet fluorescence, 18-24 h, cells fed with added oleic acid; measured here: cell count max response
In all, about 320,000 compounds went through this assay and about 2,100 (0.66%) were called active. Not shown: some 53% with an inconclusive outcome. This is one part of a sample in which actives are shown more often than they occur.
Would you kindly list cell number change for each of these compounds?
Give bare numbers, in %.

> print(dat)
                                   compound  units.of.measure  measured.result
1  NC(=O)C(Cc1ccccc1)N1C(=O)c2ccccc2C1=O (stereo unspecified)                 %            -7.43
2  O=C(c1ccc(-c2ccccc2)c(F)c1)C1CCCN(CCCn2cccn2)C1 (stereo unspecified)                 %             2.71
3  O=C(C(c1ccccc1)c1ccccc1)N1CC[C@@]2(O)CCCC[C@H]2C1                 %            -2.81
4  Cc1ccc(NC(=O)CSc2nnc(C3CC3)n2N)cc1S(=O)(=O)N1CCOCC1                 %             12.4
5  Cc1ccc(S(=O)(=O)N2CCOC2CNC(=O)C(=O)NCCCN2CCOCC2)cc1 (stereo unspecified)                 %            -5.14

Provide each entry's cell number change from the list below.
1. CCC(=O)c1ccc(OCC(=O)NNC(=O)c2cc(C)oc2C)cc1
2. O=C1c2ccccc2C(=O)N1CCCOc1ccccc1
3. C=CCN(C(=O)Cn1c(C(=O)OC)cc2oc(C)cc21)c1ccccc1

**A:**
1: -5.72; 2: -1.01; 3: -13

----------
Would you kindly list cell number change for each of these compounds?
# assay-overview: qHTS Assay for Lipid Storage Modulators in Drosophila S3 Cells;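 also: cells counted by Cell Tracker Red CMTPX staining in the red channel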
# condition-summary: BODIPY lipid droplet fluorescence, 18-24 h, cells fed with added oleic acid; measured here: cell count max response
Out of some 320,000 compounds screened, about 2,100 (0.66%) were called active. About 53% were inconclusive and are not listed. Many of the other results were omitted from the sample, so actives are more common in it than they were.
Could you give the number and then its unit, please?

> print(dat)
                                   compound  measured.result
1  COc1cc(OC)c(C(=O)OCC(=O)NCCC2=CCCCC2)cc1OC           -12.4%

Provide each entry's cell number change from the list below.
1. COc1cc(/C=N/NC(=O)c2ccc(CN3c4cccc5cccc(c45)S3(=O)=O)cc2)cc(OC)c1O
2. CN(C)c1ccc(/C=N/NC(=O)c2ccc(CN3C(=O)c4cccc5cccc3c45)cc2)cc1
3. Cc1ccc(OCC(O)CN2CCN(c3ccccc3)CC2)cc1 (stereo not given)
4. O=c1c(Cl)c(N2CCNCC2)cnn1C12CC3CC(CC(C3)C1)C2
5. CCCCN(C(=O)C1CC(=O)N(c2ccc(C)cc2)C1)c1c(N)n(CCC)c(=O)[nH]c1=O (stereo not given)
6. COC(=O)c1c(NC(=O)CCl)sc(C(=O)N2CCOCC2)c1C
7. COC(=O)c1c(N)sc(C(=O)N2CCOCC2)c1C
8. CCCCN(C(=O)C1CCCC1)c1c(N)n(CCC)c(=O)[nH]c1=O

**A:**
["-26.4%", "10.4%", "-26.7%", "5.13%", "-1.39%", "-18.1%", "8.28%", "10.4%"]

**Q:** Can you share its cell number change? I mean this compound: COc1cc(/C=N/NC(=O)c2ccc(CN3C(=O)c4cccc5cccc3c45)cc2)cc(OC)c1O
**A:** -19.2%

meta.source: PubChem BioAssay AID2685
